B1: SAM and SH3 domain-containing protein 1, residues 630 to 700; numbered along this chain, O94885 (parent)
chain: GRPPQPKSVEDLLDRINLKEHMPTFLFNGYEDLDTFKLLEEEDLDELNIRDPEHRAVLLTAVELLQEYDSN

- Variants of: B1
- ASSAY EXPLANATION: abundance fitness (aPCA) (normalised: wild type 0, dead -1); higher = more abundant; growth selection in yeast, the domain comes from the species named
- APPLIED CONDITIONS: Homo sapiens
Assign T to entries whose abundance fitness meets or exceeds -0.2; assign F to the rest.

Example entries and their recorded answers appear below.
sequence_record="GRPPQPKSVEDLLDRINLKEHMPTFLFNGYEDLDTFKLSEEEDLDELNIRDPEHRAVLLTAVELLQEYDSN [L39S]" label_class=F
sequence_record="GRPPQPKSVEDLLDGINLKEHMPTFLFNGYEDLDTFKLLEEEDLDELNIRDPEHRAVLLTAVELLQEYDSN [R15G]" label_class=F
sequence_record="GRPPQPKSVEDLLDRINLKEHMPTFLFNGYEDLDTFKLLEEEDLDELNIRDPEHRAELLTAVELLQEYDSN [V57E]" label_class=T
sequence_record="GRPPQPKSVEDLLDRINLKEHMPTFQFNGYEDLDTFKLLEEEDLDELNIRDPEHRAVLLTAVELLQEYDSN [L26Q]" label_class=T
sequence_record="GRPPQPKSVEDLLDRINLKEHMPTMLFNGYEDLDTFKLLEEEDLDELNIRDPEHRAVLLTAVELLQEYDSN [F25M]" label_class=F

Exam item: Can GRPPQPKSVEDLLDRINLKAHMPTFLFNGYEDLDTFKLLEEEDLDELNIRDPEHRAVLLTAVELLQEYDSN [E20A] be said to have abundance fitness at or above -0.2?
Marked response: F

Exam item: Can GRPPQPKSVEDLLDRINLKEHMPTFLFNGYEDLDTFKLLQEEDLDELNIRDPEHRAVLLTAVELLQEYDSN [E40Q] be said to have abundance fitness at or above -0.2?
Marked response: T

Exam item: Can LRPPQPKSVEDLLDRINLKEHMPTFLFNGYEDLDTFKLLEEEDLDELNIRDPEHRAVLLTAVELLQEYDSN [G1L] be said to have abundance fitness at or above -0.2?
Marked response: T

Source listed as the Human Domainome abundance scans (Beltran et al. 2025).
